System: Spleen cells from BDF1 female mice
Test: Mitogenesis Assay for Immunosuppressive Activity (concanavalin A-stimulated spleen cells, 3H-thymidine uptake)
Assay type: cell-based
Conditions: Mus musculus, Concanavalin A 5 μg/ml, 72 hours
Procedure: Spleen cells from BDF1 female mice were established in RPMI with 10% fetal calf serum at 5×10^6 /mL. […] Concanavalin A (5μ g/ml)was added as the mitogenic stimulus, and the final volume in the microtiter wells was adjusted to 200μ L with RPMI. […] The cells were harvested on an automated multiple sample harvester and cell-associated radioactivity counted in a Beckman liquid scintillation counter. The results are expressed as the mean values derived from quadruplicate measurements. […]
Reported Endpoint: IC50

Field: example entries. Status: answers known.
CO[C@H]1C[C@@H]2CC[C@@H](C)[C@@](O)(O2)C(O)C(=O)N2CCCC[C@H]2C(=O)O[C@H]([C@H](C)C[C@@H]2CC[C@@H](O)[C@H](OC)C2)CC(=O)[C@H](C)/C=C(\C)[C@@H](O)[C@@H](OC)C(=O)[C@H](C)C[C@H](C)/C=C/C=C/C=C/1C (single isomer, unassigned; isomer 14) [Ex. 1, major isomer, 14-Dihydrorapamycin] | 10 nM
CO[C@H]1C[C@@H]2CC[C@@H](C)[C@@](OC)(O2)C(O)C(=O)N2CCCC[C@H]2C(=O)O[C@H]([C@H](C)C[C@@H]2CC[C@@H](O)[C@H](OC)C2)CC(=O)[C@H](C)/C=C(\C)[C@@H](O)[C@@H](OC)C(O)[C@H](C)C[C@H](C)/C=C/C=C/C=C/1C (single isomer, unassigned) [Ex. 3, major isomer, 14,30-Bisdihydro-13-O-methylrapamycins] | 100 to 1000 nM
CO[C@H]1C[C@@H]2CC[C@@H](C)[C@@](O)(O2)C(=O)C(=O)N2CCCC[C@H]2C(=O)O[C@H]([C@H](C)C[C@@H]2CC[C@@H](O)[C@H](OC)C2)CC(=O)[C@H](C)/C=C(\C)[C@H]2OC(C)(C)OC([C@H](C)C[C@H](C)/C=C/C=C/C=C/1C)[C@@H]2OC [Ex. 5, 30-Dihydro-Rapamycin-28, 30-Acetonide] | 100 to 1000 nM
CO[C@H]1[C@@H](O)[C@H](C)C[C@H](C)/C=C/C=C/C=C(\C)[C@@H](OC)C[C@@H]2CC[C@@H](C)[C@](O)(CC(=O)N3CCCC[C@H]3C(=O)O[C@H]([C@H](C)C[C@@H]3CC[C@@H](O)[C@H](OC)C3)CC(=O)[C@H](C)/C=C(\C)[C@H]1O)O2 [Ex. 6, 14-Desoxo-30 (S) -dihydro-rapamycin] | > 1000 nM

Here's the next entry for you.
Record CO[C@H]1C[C@@H]2CC[C@@H](C)[C@@](O)(O2)C(O)C(=O)N2CCCC[C@H]2C(=O)O[C@H]([C@H](C)C[C@@H]2CC[C@@H](O)[C@H](OC)C2)CC(=O)[C@H](C)/C=C(\C)[C@@H](O)[C@@H](OC)C(O)[C@H](C)C[C@H](C)/C=C/C=C/C=C/1C (single isomer, unassigned) [Ex. 2, isomer 1, 14,30-Bisdihydrorapamycin] , field IC50: 1 to 10 nM
